Test system: KB-3-1
Assay: Cytotoxic Profiling of Annotated Libraries Using Quantitative High-Throughput Screening (AID 1296008); further: on the % scale 0 is the no-effect control and ±100 the full control effect; nearly all actives have a fitted effect of over 60% in size
Settings: Five cell lines viability, CellTiter-Glo ATP luminescence, 48-72 h, active compounds read low
Records with an inconclusive call do not appear.
max response values, listed per item

compound | measurement.unit | max response
C[N+](C)(C)CC(O)CC(=O)[O-] (stereo unspecified) | % | -5.76
Nc1ccc(C(=O)Oc2ccccc2)c(O)c1 | % | -4.49
C[n+]1ccccc1/C=N/O | % | -1.46
CN(C/C=C/C#CC(C)(C)C)Cc1cccc2ccccc12 | % | -0.279
C[N+]1(C)CCCC(OC(=O)C(O)(c2ccccc2)c2ccccc2)C1 (stereo unspecified) | % | -3.88
C[C@H]1COc2c(C3(N)CC3)c(F)cc3c(=O)c(C(=O)O)cn1c23 | % | 14.4
CCCNC(C)C(=O)Nc1c(C)csc1C(=O)OC (stereo unspecified) | % | -16.9
CCCCCC(N)=O | % | -2.56
COc1ccc(O)cc1 | % | -0.988
CC(=O)N[C@H]1[C@H]([C@H](O)[C@H](O)CO)OC(C(=O)O)=C[C@@H]1N=C(N)N | % | 6.48
Cn1c([N+](=O)[O-])cnc1COC(N)=O | % | -4.93
CCN1CC(CCN2CCOCC2)C(c2ccccc2)(c2ccccc2)C1=O (stereo unspecified) | % | -4.5
COc1cc(O)cc(O)c1 | % | -4.6
O=C(/C=C/c1ccccc1)OCc1ccccc1 | % | 21.2
Cc1[nH]c(C)c(Cl)c(=O)c1Cl | % | -14.2
O=C(O)c1ccccc1C(=O)Nc1ccc(S(=O)(=O)Nc2nccs2)cc1 | % | 5.93
O=C(O)Cn1c(C(=O)Nc2nc(-c3ccccc3Cl)cs2)cc2ccccc21 | % | -7.98
CC(C)(C)NCC(O)COc1cccc2c1CCC(=O)N2 (stereo unspecified) | % | 7.08
CC(CSC(=O)c1ccccc1)C(=O)N1C[C@@H](Sc2ccccc2)C[C@H]1C(=O)O (stereo partly specified) | % | -11.1
Cc1ccc(S(=O)(=O)NC(=O)NC2CCCCCCC2)cc1 | % | 0.148
COc1ccccc1OCC(O)CO (stereo unspecified) | % | 4.34
NNc1nnc(NN)c2ccccc12 | % | -5.02
CC(=O)Nc1ccc(OCCOCCOc2ccc(NC(C)=O)cc2)cc1 | % | -2.03
CC(=O)N[C@@H](Cc1ccc(O)cc1)C(=O)O | % | -4.16
CCN(CC)CCOC(=O)C(c1ccccc1)c1ccccc1 | % | 0.686
CN1C[C@@H]2C[C@H]1CN2c1cc2c(cc1F)c(=O)c(C(=O)O)cn2C1CC1 | % | -8.4

###

Assay: qHTS of pediatric cancer cell lines to identify multiple opportunities for drug repurposing: Primary screen for MG 63 (6-TG R) cells (AID 1347105); further: on the % scale 0 is the no-effect control and ±100 the full control effect; nearly all actives have a fitted effect of over 50% in size
Conditions: MG 63 (6-TG R) viability, CellTiter-Glo, 48 h; series mostly up to 46 µM
Description: Drug repurposing or repositioning has been offered as a strategy for drug development in oncology programs. This approach has special potential for childhood cancers and other rare or orphan diseases, where the expected return on new drug development has been a disincentive to pharmaceuticals. […] We employed a titration-based paradigm (quantitative high-throughput screening or qHTS), where all compounds were tested at multiple concentrations for their effect on cell viability. […]
Results filed as inconclusive are left out. Active and inactive are the calls of the source. Calls come from the whole dose curve; as a rule, active = well fitted cell-killing curve with a large enough effect; inconclusive = small, poorly fitted or top-dose-only effect; inactive = no such curve, though single readings can be large or run the other way.

molecule | activity change, negative = cytotoxic
CC(C)c1cc2c(cc1S(=O)(=O)O)[C@@]1(C)CCC[C@@](C)(C(=O)O)[C@@H]1CC2 | inactive
O=c1[nH]c(=O)n([C@H]2C[C@H](O)[C@@H](CO)O2)cc1I | inactive
CC(=O)Nc1ccc(OCCOCCOc2ccc(NC(C)=O)cc2)cc1 | inactive
Nc1ccc(S(=O)(=O)c2ccc(N)cc2)cc1 | inactive
O=C(O)c1cc(=O)c2ccccc2o1 | inactive
C/C=C1\[C@H]2C=C(C)C[C@]1(N)c1ccc(=O)[nH]c1C2 | inactive
CCS(=O)(=O)CCn1c([N+](=O)[O-])cnc1C | inactive
COc1ccc(-c2cc(=O)c3c(O)cc(O[C@@H]4O[C@H](CO[C@@H]5O[C@@H](C)[C@H](O)[C@@H](O)[C@H]5O)[C@@H](O)[C@H](O)[C@H]4O)cc3o2)cc1O | inactive
O[C@@H]1CO[C@H]2[C@@H]1OC[C@@H]2O | inactive
NC(N)=NCCN1CCCCCCC1 | 7.08% [at 0.597 µM] (inactive)
